# Tested on: lung adenocarcinoma cells (A549)
# protocolDescription: MTT cell viability assay, A549
# Type: cell-based
# studyConditions: read-out: Cytotoxicity (IC50) A549, MTT, 48 h
# Protocol: Cell viability assay: The cell viability was determined by the standard MTT assay method. […] The amount of colored formazan derivatives formed was measured by taking optical density (OD) using a microplate reader (TECAN, Infinite M200 Pro) at 570 nm, and the percentage of cell viability was calculated. The IC50 values were calculated using GraphPad Prism software (Version 5.0).
reportedMetric: pIC50
Remember the convention: pIC50 equals -log10 of concentration in molar.

// returns reported pIC50 for input CCCCCc1cc(O[C@@H]2OC(CO)[C@@H](O)C(O)C2O)c2c(c1)OC(C)(C)[C@@H]1CC=C(C)C[C@@H]21 (single isomer, unassigned) [Compound 3a]
5.67

---

Measured pIC50 by item
# System: lung adenocarcinoma cells (A549)
# protocolDescription: MTT cell viability assay, A549
# Type: cell-based
# studyConditions: Homo sapiens, A549, 48 h, read-out: Cytotoxicity (IC50) A549, MTT, 48 h
Please report pIC50 as the negative decimal logarithm of the molar concentration, giving only the number.

molecule	reportedMetric	quantitativeReadout
CCCCCc1cc(O)c2c(c1)OC(C)(C)c1ccc(C)cc1-2 (single isomer, unassigned) [Compound 4, Cannabinol, reference compound]	pIC50	5.67
CCCCCc1cc(O[C@@H]2OC(CO)[C@@H](O)C(O)C2O)c2c(c1)OC(C)(C)c1ccc(C)cc1-2 (stereo partly drawn) [Compound 4a, Cannabinol-1-O-β-D-glucopyranoside]	pIC50	5.52
CCCCCc1cc(O[C@@H]2OC(CO)[C@@H](O)C(O)C2O)c2c(c1)OC(C)(C)[C@@H]1CCC(C)=C[C@@H]21 (stereo partly shown) [Compound 2a]	pIC50	5.84

Query (molecule): CCCc1cc(O[C@@H]2OC(CO)[C@@H](O)C(O)C2O)c2c(c1)OC(C)(C)[C@@H]1CC=C(C)C[C@@H]21 (stereo partly shown) [Compound 1a] ; field requested: pIC50
4.28

---

# System: MIAPaCa-2 cells
# protocolDescription: MTT cell viability assay, MIAPaCa-2
# Format: cell-based, human
# studyConditions: MTT, 48 h; read-out: Cytotoxicity (IC50) MIAPaCa-2
reportedMetric: IC50

# annotated cases, reported IC50 shown
> print(dat)
                                   molecule  targetundertest   result
1  CCCCCc1cc(O)c2c(c1)OC(C)(C)[C@@H]1CCC(C)=C[C@@H]21 [Compound 2, Δ^9-tetrahydrocannabinol, reference compound]  MIAPaCa-2 cells  4.47 µM
2  CCCCCc1cc(O)c2c(c1)OC(C)(C)[C@@H]1CC=C(C)C[C@@H]21 [Compound 3, Δ^8-tetrahydrocannabinol, reference compound]  MIAPaCa-2 cells  2.46 µM

Return reported IC50; argument: CCCc1cc(O)c2c(c1)OC(C)(C)[C@@H]1CCC(C)=C[C@@H]21 [Compound 1, Δ^9-tetrahydrocannabivarin, reference compound]
23.2 µM

---

# Tested on: MDA-MB-231 cells
# protocolDescription: MTT cell viability assay, MDA-MB-231
# Format: cell-based
# studyConditions: Homo sapiens, aggressive breast cancer cell line of mesenchymal origin
# Method: Cell viability assay: The cell viability was determined by the standard MTT assay method. […] The amount of colored formazan derivatives formed was measured by taking optical density (OD) using a microplate reader (TECAN, Infinite M200 Pro) at 570 nm, and the percentage of cell viability was calculated. The IC50 values were calculated using GraphPad Prism software (Version 5.0). […]
reportedMetric: pIC50
On this scale, pIC50 is minus log10 of a concentration expressed in M (mol/L).

Give the measured pIC50 of CCCCCc1cc(O[C@@H]2OC(CO)[C@@H](O)C(O)C2O)c2c(c1)OC(C)(C)[C@@H]1CCC(C)=C[C@@H]21 (stereo partly shown) .
5.85

---

Known IC50 of a selection of molecules
# Tested on: Panc-1 cells
# protocolDescription: MTT cell viability assay, Panc-1
# Format: cell-based
# studyConditions: Homo sapiens, PANC-1, 48 h, read-out: Cytotoxicity (IC50) Panc-1, MTT, 48 h; pancreatic cancer cells
Express the result in µM but write the number alone.

molecule	reportedMetric	units	quantitativeReadout
CCCc1cc(O[C@@H]2OC(CO)[C@@H](O)C(O)C2O)c2c(c1)OC(C)(C)[C@@H]1CC=C(C)C[C@@H]21 (stereo partly shown) [Compound 1a]	IC50	µM	21.4
CCCCCc1cc(O[C@@H]2OC(CO)[C@@H](O)C(O)C2O)c2c(c1)OC(C)(C)[C@@H]1CCC(C)=C[C@@H]21 (stereo partly shown) [Compound 2a]	IC50	µM	3
CCCCCc1cc(O)c2c(c1)OC(C)(C)c1ccc(C)cc1-2 (single isomer, unassigned) [Compound 4, Cannabinol, reference compound]	IC50	µM	11.8

For CCCCCc1cc(O[C@@H]2OC(CO)[C@@H](O)C(O)C2O)c2c(c1)OC(C)(C)c1ccc(C)cc1-2 (stereo partly drawn) [Compound 4a, Cannabinol-1-O-β-D-glucopyranoside] , what is its reported IC50?
3.16

---

# Test system: human colorectal adenocarcinoma cell line (HT-29)
# protocolDescription: MTT cell viability assay, HT-29
# Type: cell-based
# studyConditions: MTT, 48 h; human colorectal adenocarcinoma cell line; read-out: Cytotoxicity (IC50) HT-29
pIC50: −log10 of the molar value.
reportedMetric: pIC50

Some solved cases for reference:
> print(dat)
                                   compound  reportedmetric  result
1  CCCc1cc(O)c2c(c1)OC(C)(C)[C@@H]1CCC(C)=C[C@@H]21 [Compound 1, Δ^9-tetrahydrocannabivarin, reference compound]           pIC50    4.34
2  CCCCCc1cc(O)c2c(c1)OC(C)(C)[C@@H]1CC=C(C)C[C@@H]21 [Compound 3, Δ^8-tetrahydrocannabinol, reference compound]           pIC50  < 4.00

Could you tell me which pIC50 is on file for CCCCCc1cc(O)c2c(c1)OC(C)(C)[C@@H]1CCC(C)=C[C@@H]21 [Compound 2, Δ^9-tetrahydrocannabinol, reference compound] ?
< 4.00

---

Measured IC50, listed per entry.
# System: PC3 cells
# protocolDescription: MTT cell viability assay, PC3
# Format: cell-based
# studyConditions: MTT, 48 h; read-out: Cytotoxicity (IC50) PC3
# Method: Cell viability assay: The cell viability was determined by the standard MTT assay method. […] The amount of colored formazan derivatives formed was measured by taking optical density (OD) using a microplate reader (TECAN, Infinite M200 Pro) at 570 nm, and the percentage of cell viability was calculated. The IC50 values were calculated using GraphPad Prism software (Version 5.0).
Numeric answer only, unit µM assumed.

> print(dat)
                                   compound  reportedmetric  quantitativereadout
1  CCCCCc1cc(O)c2c(c1)OC(C)(C)[C@@H]1CC=C(C)C[C@@H]21 [Compound 3, Δ^8-tetrahydrocannabinol, reference compound]            IC50                   28

Could you now consider this next compound?
Form field: reported IC50 of CCCc1cc(O)c2c(c1)OC(C)(C)[C@@H]1CCC(C)=C[C@@H]21 [Compound 1, Δ^9-tetrahydrocannabivarin, reference compound]
88.2

---

# System: lung adenocarcinoma cells (A549)
# protocolDescription: MTT cell viability assay, A549
# Assay type: cell-based
# studyConditions: MTT, 48 h, read-out: Cytotoxicity (IC50) A549
# Description: Cell viability assay: The cell viability was determined by the standard MTT assay method. […] The amount of colored formazan derivatives formed was measured by taking optical density (OD) using a microplate reader (TECAN, Infinite M200 Pro) at 570 nm, and the percentage of cell viability was calculated. The IC50 values were calculated using GraphPad Prism software (Version 5.0).
Form field: IC50 (one value per entry).
Please reply with the bare figure in µM and do not write the unit itself.

Worked examples, 2 compounds total:
> print(dat)
                                   compound  reportedmetric  quantitativereadout
1  CCCCCc1cc(O)c2c(c1)OC(C)(C)[C@@H]1CC=C(C)C[C@@H]21 [Compound 3, Δ^8-tetrahydrocannabinol, reference compound]            IC50                 11.6
2  CCCc1cc(O)c2c(c1)OC(C)(C)[C@@H]1CCC(C)=C[C@@H]21 [Compound 1, Δ^9-tetrahydrocannabivarin, reference compound]            IC50                 39.4

Then there is this compound:
Quick one: IC50 for CCCCCc1cc(O)c2c(c1)OC(C)(C)[C@@H]1CCC(C)=C[C@@H]21 [Compound 2, Δ^9-tetrahydrocannabinol, reference compound] ?
11.7

---

Items are presented alongside their recorded pIC50.
# Tested on: HCT-116 cells
# protocolDescription: MTT cell viability assay, HCT-116
# Assay type: cell-based
# studyConditions: MTT, 48 h; colorectal adenocarcinoma cells; read-out: Cytotoxicity (IC50) HCT-116
Just so you know, pIC50 here is -log10 of the concentration in molar units; reply with that number alone.

Here are 2 molecules together with their reported answers.
> print(dat)
                                   molecule  quantitativereadout
1  CCCCCc1cc(O)c2c(c1)OC(C)(C)[C@@H]1CCC(C)=C[C@@H]21 [Compound 2, Δ^9-tetrahydrocannabinol, reference compound]                 4.72
2  CCCc1cc(O)c2c(c1)OC(C)(C)[C@@H]1CCC(C)=C[C@@H]21 [Compound 1, Δ^9-tetrahydrocannabivarin, reference compound]                 4.97

Then there is this molecule:
Entry CCCCCc1cc(O)c2c(c1)OC(C)(C)[C@@H]1CC=C(C)C[C@@H]21 [Compound 3, Δ^8-tetrahydrocannabinol, reference compound] has what pIC50?
4.56

Origin of values: patent US20240382509A1
